- Test system: MDA-MB-435
- experiment.summary: NCI tumour cell line growth inhibition, 48 h
The source made the active and inactive calls. No stated cut-off is given here; in the data, active = GI50 up to about 1.1 µM and inactive = higher.
Pick one: TRUE for active, FALSE for inactive

Examples with answers:
>>> label_class("CCc1n[nH]c(=O)n1N")
"FALSE"
>>> label_class("Cc1ccc(NC(=O)c2ccccc2C(=O)O)cc1C")
"FALSE"
>>> label_class("Cc1cc(Nc2ccc(S(=O)(=O)O)c3cc(S(=O)(=O)O)cc(S(=O)(=O)O)c23)c2ccccc2n1")
"FALSE"
>>> label_class("CCOC(=O)/C=C/CCO[Si](C)(C)C(C)(C)C")
"FALSE"
>>> label_class("O=C(O)CSCc1cccc2ccccc12")
"FALSE"
>>> label_class("CC1OC(O[C@H]2C3C=CO[C@@H](OC4OC(CO)C(O)C(O)C4O)C3[C@@]3(COC(=O)/C=C/c4ccc(O)cc4)O[C@@H]23)C(O)C(O)C1O (stereo not given in full)")
"FALSE"
>>> label_class("Cc1csc2nc(-c3cccc([N+](=O)[O-])c3)c(/C=N/N=C(N)N)n12")
"FALSE"
>>> label_class("COc1ccc(/C=C2\\Sc3nnc(C)n3N=C2c2cc(F)c(Cl)cc2Cl)cc1OC")
"FALSE"
>>> label_class("CCOC(=O)CO/N=C1/C(=C2/C(=O)Nc3ccccc32)Nc2ccccc21")
"FALSE"
>>> label_class("CCCCc1ccc(Nc2nc3ncnc-3c[nH]2)cc1")
"FALSE"

### Prompt Tell me the assay call for COc1ccc(C(Nc2ncccn2)c2cc3c(cc2O)OCO3)cc1 (stereo not given) please.
### Response FALSE

### Prompt Also check COC(=O)c1ccccc1C#CC#Cc1ccccc1C(=O)OC
### Response FALSE

### Prompt Again, but for C(=N/NC1=NCCN1)/c1c2ccccc2c(/C=N\NC2=NCCN2)c2ccccc12
### Response TRUE

Values were extracted from ChEMBL document CHEMBL1201862.
